Listing: boiling point of selected molecules

{"molecule": "COc1cc(C)ccc1O", "boiling point (°C)": 221}
{"molecule": "C[C@@H](O)C1CC1", "boiling point (°C)": 124}
{"molecule": "Cc1ccc[nH]c1=O", "boiling point (°C)": 289}
{"molecule": "O=[N+]([O-])c1cccc(Br)c1", "boiling point (°C)": 256}
{"molecule": "CCOC(OCC)OCC", "boiling point (°C)": 143}
{"molecule": "CCCCC(CC)COC(=O)/C=C/C(=O)OCC(CC)CCCC (centres undefined)", "boiling point (°C)": 300}
{"molecule": "OCc1ccc(F)cc1", "boiling point (°C)": 210}
{"molecule": "FC(Cl)(Cl)I", "boiling point (°C)": 90}
{"molecule": "CCCCOCCCC", "boiling point (°C)": 141}
